molecules and their reported GI50
# Tested on: PC-3
# Measurement Notes: NCI tumour cell line growth inhibition, 48 h
Activity calls are given as the source filed them. Rule as the data show it: active = GI50 up to about 1.1 µM and inactive = higher.

The reported GI50 of the molecule O=[N+]([O-])/C(C(Cl)=C(Cl)Cl)=C(/Nc1ccccc1)Sc1ccccc1 was 18.5 µM (inactive)

---

# Tested on: ACHN
# Measurement Notes: NCI tumour cell line growth inhibition, 48 h
Calls of active or inactive are those of the source. Cut-off read from the data, not from the text of the source: active = GI50 up to about 1.1 µM and inactive = higher.
Please reply with one of these outcomes: active, inactive

CC(=O)Nc1ccc(Nc2cc(O)nc(O)n2)cc1	inactive

query: Please indicate how the test categorized CN1C(=O)CN2C(Cl)(Cl)C2(c2ccccc2)c2cc(Cl)ccc21 (stereo unspecified) .
result: inactive

query: Please indicate how the test categorized CC1(C)C=C(S(=O)(=O)c2ccccc2)Oc2ccccc2O1 .
result: inactive

query: Please indicate how the test categorized Nc1c(Cl)ncnc1NCC1(CO)CCC1 .
result: inactive

query: Please indicate how the test categorized CCCOC(=O)c1cc(O)c(O)c(O)c1 [PROPYL GALLATE] .
result: inactive

query: Please indicate how the test categorized Cn1c2c3ccccc3nc-2c(O)c2ccccc21 [HYDROXYCRYPTOLEPINE] .
result: inactive

query: Please indicate how the test categorized CC(=O)n1nc(-c2ccc3ccccc3c2)nc1C .
result: inactive

query: Please indicate how the test categorized CN(C)CCNc1ccc2nnn3c4ccc(Cl)cc4c(=O)c1c23 .
result: inactive

query: Please indicate how the test categorized N#CCCN(CCN(C(=O)Nc1ccccc1)c1ccccc1)C(=O)Nc1ccccc1 .
result: inactive
